Data origin, for the record: paper PMC12529666

Target: AGO2 L192P (Homo sapiens, UniProt Q9UKV8 1-859, L192P;S387D;S824A;S828D;S831D;S834A)
Sequence (Q9UKV8 whole entry L192P/S387D/S824A/S828D/S831D/S834A): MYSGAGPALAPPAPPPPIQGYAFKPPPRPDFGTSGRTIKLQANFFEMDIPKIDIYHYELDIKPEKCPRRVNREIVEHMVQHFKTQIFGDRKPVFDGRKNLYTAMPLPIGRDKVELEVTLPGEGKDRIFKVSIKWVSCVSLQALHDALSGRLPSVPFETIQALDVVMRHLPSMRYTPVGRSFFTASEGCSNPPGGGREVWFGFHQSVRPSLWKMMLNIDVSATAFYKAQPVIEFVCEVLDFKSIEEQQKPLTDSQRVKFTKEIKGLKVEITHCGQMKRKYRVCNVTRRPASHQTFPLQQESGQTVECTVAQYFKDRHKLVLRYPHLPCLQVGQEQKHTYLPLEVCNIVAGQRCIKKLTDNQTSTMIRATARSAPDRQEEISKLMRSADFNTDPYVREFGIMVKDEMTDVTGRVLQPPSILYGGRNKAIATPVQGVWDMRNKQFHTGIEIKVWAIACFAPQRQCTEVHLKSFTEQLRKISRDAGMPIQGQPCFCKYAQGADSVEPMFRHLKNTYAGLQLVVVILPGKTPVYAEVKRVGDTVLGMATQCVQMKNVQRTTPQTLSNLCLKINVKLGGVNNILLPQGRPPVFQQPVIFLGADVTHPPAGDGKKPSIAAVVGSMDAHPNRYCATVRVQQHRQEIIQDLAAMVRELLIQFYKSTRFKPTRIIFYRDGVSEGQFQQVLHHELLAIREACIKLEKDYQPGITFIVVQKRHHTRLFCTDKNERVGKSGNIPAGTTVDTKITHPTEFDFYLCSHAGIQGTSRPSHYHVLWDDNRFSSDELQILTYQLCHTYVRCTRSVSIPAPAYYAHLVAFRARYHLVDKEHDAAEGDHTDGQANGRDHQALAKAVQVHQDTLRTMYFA
Experiment: RNA Bind-n-Seq (nitrocellulose filter binding and sequencing); miR-122 guide loaded in AGO2; 60 min incubation; 30 mM Tris pH 8.0, 100 mM potassium acetate, 2 mM magnesium acetate, 0.5 mM TCEP, 0.005% NP-40, 0.01 mg/ml yeast tRNA; 3 nM AGO2-miR-122, 100 nM RNA library; 60; high values mean tight binding
Details: protein: recombinant; tags: His6 (N-terminal, pFastBac HTA)
Measured endpoint: binding signal

Please review the entries below; each comes with its answer.
GCGCCTTA (ssRNA, constant regions annealed to DNA blockers; guide miR-122 5' phosphate) RNA 1: GAGUUCUACAGUCCGACGAUCCCAACGCGCCUUACACCUGGAAUUCUCGGGUGCCAA RNA 2: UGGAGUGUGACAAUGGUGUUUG DNA 1: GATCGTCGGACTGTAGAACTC DNA 2: TTGGCACCCGAGAATTCCA    0.5 fold enrichment over input
ACGTCCTG (ssRNA, constant regions annealed to DNA blockers; guide miR-122 5' phosphate) RNA 1: GAGUUCUACAGUCCGACGAUCCCAACACGUCCUGCACCUGGAAUUCUCGGGUGCCAA RNA 2: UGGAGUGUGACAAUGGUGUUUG DNA 1: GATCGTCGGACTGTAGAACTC DNA 2: TTGGCACCCGAGAATTCCA    0.312 fold enrichment over input
ATGCCTCA (ssRNA, constant regions annealed to DNA blockers; guide miR-122 5' phosphate) RNA 1: GAGUUCUACAGUCCGACGAUCCCAACAUGCCUCACACCUGGAAUUCUCGGGUGCCAA RNA 2: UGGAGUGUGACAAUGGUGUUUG DNA 1: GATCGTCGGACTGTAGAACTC DNA 2: TTGGCACCCGAGAATTCCA    0.547 fold enrichment over input

Please look at the following binder next.
Which binding signal value belongs to GTACTCTG (ssRNA, constant regions annealed to DNA blockers; guide miR-122 5' phosphate) RNA 1: GAGUUCUACAGUCCGACGAUCCCAACGUACUCUGCACCUGGAAUUCUCGGGUGCCAA RNA 2: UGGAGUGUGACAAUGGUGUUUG DNA 1: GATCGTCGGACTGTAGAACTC DNA 2: TTGGCACCCGAGAATTCCA ?
0.332 fold enrichment over input
